Tested on: Setaria faberi (SETFA)
assay_comment: Glasshouse herbicide test, post-emergence
Format: in vivo
conditions: 1000 g/h, evaluated after 13 days, five point scale
endpoint_name: percentage damage caused to the plant, SETFA, POST Application

Completed entries (count: 6):
- smiles_notation: "Cc1ccc([N+](=O)[O-])c(C(=O)Nc2nncn2C)c1"
  observed_value: "1 (1=0-19%)"
- smiles_notation: "CCn1c(C)nnc1NC(=O)c1ccc(S(C)(=O)=O)c(COCC(F)(F)F)c1Cl"
  observed_value: "1 (1=0-19%)"
- smiles_notation: "CCc1nnc(NC(=O)c2ccc(C(F)(F)F)cc2S(C)(=O)=O)n1C"
  observed_value: "2 (2=20-39%)"
- smiles_notation: "CCn1cnnc1NC(=O)c1ccc(C(F)(F)F)cc1S(C)(=O)=O"
  observed_value: "2 (2=20-39%)"
- smiles_notation: "Cn1cnnc1NC(=O)c1ccc(C(F)(F)F)cc1S(C)(=O)=O"
  observed_value: "3 (3=40-59%)"
- smiles_notation: "CCc1nnc(NC(=O)c2ccc(S(C)(=O)=O)c(COCC(F)(F)F)c2Cl)n1C"
  observed_value: "1 (1=0-19%)"

**Query** Quick one: percentage damage caused to the plant, SETFA, POST Application of `Cc1ccc(C(F)(F)F)c(C(=O)Nc2nncn2C)c1` ?
**Result** 1 (1=0-19%)

**Query** Cool, now `Cn1cnnc1NC(=O)c1cc(F)c(F)cc1[N+](=O)[O-]`
**Result** 1 (1=0-19%)

**Query** Entry `CCn1cnnc1NC(=O)c1ccc(S(C)(=O)=O)c(COCC(F)(F)F)c1Cl` please
**Result** 5 (5=80-100%)

**Query** Can you check `Cc1nnc(NC(=O)c2ccc(C(F)(F)F)cc2S(C)(=O)=O)n1C` next?
**Result** 1 (1=0-19%)
